B1: C22orf15 (parent)
chain: PRGRAHLLPNPYQQDFLGLPEELR

Variants of: B1
assay.method.text: protein stability index of a GFP-peptide fusion (GPS, HEK-293T) (PSI 1-6); higher = more stable;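 further: lentivirally expressed fusions sorted by FACS into six bins by GFP to DsRed ratio, PSI derived from sequencing read proportions per bin multiplied by bin number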
measurement.setup: c terminus: a fixed tail appended
experimental.endpoint: protein stability index
Could you respond with only the numeric value?

entry_sequence="PRGRAHLLPNPYQQDFLWLPEELR [G18W]" experimental_endpoint="protein stability index" val=2.98

Documented protein stability index of PRGRAHLLPNPYQQDFLGLPEELT [R24T] : 4.11

Per the record, PRGRAHLLPNKYQQDFLGLPEELR [P11K] has protein stability index of 4.04
